Reported % bound at competitor concentration 10-6M by item:
# System: 125I-Melatonin Binding in Membranes of Hamster Brain
# METHOD NOTES: 125I-Melatonin binding in membranes of hamster brain (competition)
# MEASUREMENT PARAMETERS: competitor 10^-6M, relative to competitor concentration 0
Kindly answer with a numeric value in %, unit omitted.

Look over these answered cases.
- COMPOUND: "COc1ccc2[nH]cc(CCNC(C)=O)c2c1 [Melatonin, reference compound]"
  EXPERIMENTAL RESULT: 79
- COMPOUND: "COc1ccc2[nH]cc(CCNc3cc(NC(C)=O)c([N+](=O)[O-])cc3[N+](=O)[O-])c2c1"
  EXPERIMENTAL RESULT: 80

Consider the record given below.
I'd like to know its % bound at competitor concentration 10-6M. The compound in question is COc1ccc2[nH]cc(CCNc3cc(N)c([N+](=O)[O-])cc3[N+](=O)[O-])c2c1
93
